Numbers sourced from PubChem BioAssay (NCI).

# Test system: SK-MEL-2 melanoma
# protocol_description: NCI tumour cell line growth inhibition, 48 h
measurement_name: TGI (µM)

INSERT INTO assay_data (compound, assayed_target, measurement_units, bound_type, readout_value) VALUES
  ('CNCC/C=C1\c2cc3c(cc2-c2c1c1cc(OC)c(OC)cc1c(=O)n2C)OCO3', 'SK-MEL-2 melanoma', 'µM', '>', 100),
  ('O=C(/C=C/c1ccc(OCc2ccccc2)cc1)NCc1ccc(C(=O)NCCc2c[nH]c3ccccc23)cc1', 'SK-MEL-2 melanoma', 'µM', '>', 82.6),
  ('CCC/C=C\C=C\C1(NS(=O)(=O)c2ccc(C)cc2)CCC(C(C)(C)C)CC1 (stereo not drawn)', 'SK-MEL-2 melanoma', 'µM', '=', 29),
  ('CCc1c2cc(OC)c(OC)cc2cc2c3cc(OC)c(OC)cc3cc[n+]12 (tested in a mixture with another compound)', 'SK-MEL-2 melanoma', 'µM', '=', 87.1),
  ('O/N=C1\CC2(N3CCOCC3)CCC1(c1ccccc1)CC2', 'SK-MEL-2 melanoma', 'µM', '>', 100),
  ('COC1CC(OC2CCC3(C)C(=CCC4C3C(OC(C)=O)C(OC(=O)CC(C)C)C3(C)C(C(C)=O)CCC43O)C2)OC(C)C1OC1CC(OC)C(OC2CC(OC)C(OC3OC(C)C(O)C(OC)C3O)C(C)O2)C(C)O1 (stereo not drawn)', 'SK-MEL-2 melanoma', 'µM', '=', 93.3),
  ('Cc1ccc(S(=O)(=O)OCC#CCOS(=O)(=O)c2ccc(C)cc2)cc1', 'SK-MEL-2 melanoma', 'µM', '=', 9.66),
  ('Cc1c(Cl)c(=O)oc2cc(OC/C=C3\CCC(=O)O3)ccc12', 'SK-MEL-2 melanoma', 'µM', '=', 40.5),
  ('CC(C)(C)OP(=O)(OC(C)(C)C)C(O)c1ccc(/C=C(\C#N)C(N)=O)cc1 (stereo not drawn)', 'SK-MEL-2 melanoma', 'µM', '>', 100),
  ('COCCOCCOCc1n(Cc2ccc3ccccc3c2)c2ccccc2[n+]1Cc1ccc2ccccc2c1', 'SK-MEL-2 melanoma', 'µM', '=', 0.941),
  ('c1ccc2c(c1)nn1c3ccc4nonc4c3[n-][n+]21', 'SK-MEL-2 melanoma', 'µM', '>', 100),
  ('O=C1CCC(=O)N1CNc1ccc2c(c1)S(=O)(=O)c1ccccc1O2', 'SK-MEL-2 melanoma', 'µM', '>', 100),
  ('CC(C)=NNc1snnc1C(N)=O', 'SK-MEL-2 melanoma', 'µM', '>', 100),
  ('Cc1cc(-c2nnc(/C=C/c3ccc4c(c3)OCO4)o2)n[nH]1', 'SK-MEL-2 melanoma', 'µM', '>', 50),
  ('O=C(Nc1cccc(-n2cc(-c3ccncc3)c(-c3ccc(O)c(Cl)c3)n2)c1)c1ccc2c(c1)OCCO2', 'SK-MEL-2 melanoma', 'µM', '>', 100),
  ('COc1ccc(NC(=S)NNC(=O)c2nsc3ccccc23)cc1', 'SK-MEL-2 melanoma', 'µM', '=', 90.8),
  ('CN(C)CCC(/C=C/c1ccccc1)=N\Nc1ccc(Cl)c(Cl)c1', 'SK-MEL-2 melanoma', 'µM', '=', 6.31),
  ('C=C1C(=O)OC2C1C(OC(=O)/C(C)=C/C)CC(O)(CCl)C1C(O)C=C(C)C21O (stereo not drawn)', 'SK-MEL-2 melanoma', 'µM', '>', 50.3),
  ('Cc1ccc(Nc2cc(Cl)c([N+](=O)[O-])cc2[N+](=O)[O-])cc1', 'SK-MEL-2 melanoma', 'µM', '=', 8.94),
  ('C1OC1CN1CCN(CC2CO2)CC1 (stereo not drawn)', 'SK-MEL-2 melanoma', 'µM', '>', 100),
  ('O=C(O)CCO/N=C1/C(c2c(O)[nH]c3ccccc23)=Nc2ccccc21', 'SK-MEL-2 melanoma', 'µM', '=', 37.7),
  ('COC(=O)c1c(C)[nH]c2c1C(=O)C(=O)c1nc(C)c(C)nc1-2', 'SK-MEL-2 melanoma', 'µM', '=', 16.3),
  ('Nc1c(C(=O)Nc2ccccn2)sc2nc3c(cc12)C(O)CCC3 (stereo not drawn)', 'SK-MEL-2 melanoma', 'µM', '>', 50),
  ('N#Cc1c(C#N)c(-c2ccccc2)n(Cc2ccccc2)c1N', 'SK-MEL-2 melanoma', 'µM', '>', 100),
  ('Cn1c(=O)c2sc3c4sc5c(=O)n(C)c6ccccc6c5c4sc3c2c2ccccc21', 'SK-MEL-2 melanoma', 'µM', '>', 100),
  ('O=C1CCCC/C1=C1/SC(=Nc2ccccc2)C(=Nc2ccccc2)N1c1ccccc1', 'SK-MEL-2 melanoma', 'µM', '>', 100),
  ('CC(=O)c1c(SCCN2CCOCC2)n(-c2ccccc2)c(=S)n(-c2ccccc2)c1=O', 'SK-MEL-2 melanoma', 'µM', '=', 39.4),
  ('C=C(Cl)/C(=C\Cl)CCC(Cl)C(C)C (stereo not drawn)', 'SK-MEL-2 melanoma', 'µM', '>', 100);

###

# reported TGI; entries follow
# Tested on: NCI-H23 lung
# protocol_description: NCI tumour cell line growth inhibition, 48 h
measurement_name: TGI

INSERT INTO assay_data (molecule, readout_value) VALUES
  ('CNCCN[C@@H]1c2cc3c(cc2[C@@H](c2cc(OC)c(O)c(OC)c2)[C@H]2C(=O)OC[C@@H]21)OCO3', '1.54 µM'),
  ('COC(=O)CCC1=NCC(C)(C)O1', '> 10 µM'),
  ('COc1ccc(C2C(C#N)=C(S)N(C3OC(COC(C)=O)C(OC(C)=O)C(OC(C)=O)C3OC(C)=O)C(C)=C2C(C)=O)cc1 (configuration not stated)', '> 100 µM'),
  ('Cc1ccc(S(=O)(=O)N/N=C(\c2nc3ccc([N+](=O)[O-])cc3[nH]c2=O)C(O)c2ccc([N+](=O)[O-])cc2)cc1 (configuration not stated)', '> 100 µM'),
  ('O=c1[nH]nc(-c2ccccc2)n1/N=C/c1ccco1', '> 100 µM'),
  ('O=C1CNC(=O)/C(=C/c2c[nH]c3ccccc23)N1', '> 100 µM'),
  ('C=C1C(=O)OC2C1C(OC(=O)/C(C)=C/C)CC(O)(CCl)C1C(O)C=C(C)C21O (configuration not stated)', '28.3 µM');

###

# Test system: ACHN renal
# protocol_description: NCI tumour cell line growth inhibition, 48 h; in the data active = GI50 below about 0.43 µM; inactive = the rest
Classes used: active, inactive

INSERT INTO measurements (compound, class_assignment) VALUES
  ('Cc1c(Cl)c(=O)oc2cc(OC/C=C3\CCC(=O)O3)ccc12', 'inactive'),
  ('CCOC(=O)C(Cc1c[nH]c2cc(N(CCO)CCO)ccc12)(NC(C)=O)C(=O)OCC', 'inactive'),
  ('Cc1cc(C(=O)/C=C/c2ccc[nH]2)ccc1-n1ccc(C(F)(F)F)n1', 'inactive'),
  ('CCC1C(C)C=NN1c1nc(N)nc(C(C#N)=Nc2ccc(N(C)C)cc2)n1 (stereo not given)', 'inactive'),
  ('CNCC/C=C1\c2cc3c(cc2-c2c1c1cc(OC)c(OC)cc1c(=O)n2C)OCO3', 'active'),
  ('Cc1ccc(C(=O)c2sc3nc4c(cc3c2N)CCCC4)c(C)c1', 'inactive'),
  ('Nc1nonc1-c1nc2ccccc2n1Cc1ccc(F)cc1', 'inactive'),
  ('COc1cccc(-c2nn(-c3ccccc3)cc2-c2ccnc(NCCCNC(=O)c3cccc(C(F)(F)F)c3)c2)c1', 'inactive'),
  ('Cc1ccc(C(=O)NCCCOc2ccc(N3C(N)=NC(N)=NC3(C)C)cc2Cl)cc1S(=O)(=O)F', 'inactive'),
  ('O=C(O)c1cc2ccccc2c2c3c(ccc12)OCO3', 'inactive'),
  ('COCCOCCOCc1n(Cc2ccc3ccccc3c2)c2ccccc2[n+]1Cc1ccc2ccccc2c1', 'inactive'),
  ('Clc1ccc(C2CC(c3cccc(Nc4ccncc4)c3)=NN2c2ccc(Cl)cc2)cc1 (stereo not given)', 'inactive'),
  ('CNC(=O)c1cc(Oc2cccc3nc(NC(=O)Nc4cc(C(F)(F)F)cc(C(F)(F)F)c4)ccc23)ccn1', 'inactive'),
  ('O=C(NCCc1ccccc1)Nc1ccc2cc3ccc(NC(=O)NCCc4ccccc4)cc3nc2c1', 'inactive'),
  ('CC(C)(C)c1cc(C(=O)Nc2ccc(C(=O)NCCN)cc2)cc(C(C)(C)C)c1', 'inactive'),
  ('COc1cccc(/C=C/c2nc3c(cnn3-c3ccccc3)c(=O)[nH]2)c1', 'inactive'),
  ('CO[C@@H]1CCN(c2nccc(Nc3cc4c(C(C)C)ccc(N5CC(CS(C)(=O)=O)[C@H]5C)c4cn3)n2)C[C@@H]1F (stereo not given in full)', 'inactive'),
  ('Nc1c(C(=O)Nc2ccccn2)sc2nc3c(cc12)C(O)CCC3 (stereo not given)', 'inactive'),
  ('COc1cc(Cl)cc(-c2nn(-c3cccc(NC(=O)Nc4cccc(C(F)(F)F)c4)c3)cc2-c2ccncc2)c1', 'inactive'),
  ('[N-]=[N+]=NCCCn1c2c(c3ccc([N+](=O)[O-])cc3c1=O)C(=O)c1cc3c(cc1-2)OCO3', 'active'),
  ('C/C=C/C/C=C/[C@H](C)C[C@H](O)[C@@H]1C[C@@H]2O[C@H]2/C=C/[C@@H]2OC(C)(C)O[C@H]2/C=C/C[C@H](C)CC(=O)O1', 'inactive'),
  ('C[C@]12CC[C@@H]3c4ccc(O)cc4CC[C@H]3[C@@H]1CC[C@@H]2NS(=O)(=O)c1ccc(Br)cc1', 'inactive'),
  ('COc1ccc(/C(C)=N/NC(=O)CSc2nc3ccccc3c(=O)n2CCc2ccc(S(N)(=O)=O)cc2)cc1', 'inactive'),
  ('O=C(CSCC(=O)N/N=C/c1ccccc1O)N/N=C\c1ccccc1O', 'inactive'),
  ('CCCCCCCCCCCCCCCCCCNCc1ccc(Cl)cc1', 'inactive');
